// solubility at 24 h lookup, one value per entry
- protocol.notes: Aqueous solubility of the compound in 10% PEG400 aqueous solution after 24 hrs by HPLC analysis
- Assay type: physicochemical

compound	relational.operator	solubility at 24 h / mg/mL
CC(C)=CCC/C(C)=C/CC/C(C)=C/CSc1ccccc1C(=O)NCCCCCNC(=O)c1ccccc1SC/C=C(\C)CC/C=C(\C)CCC=C(C)C	<	0.01
CC(C)=CCC/C(C)=C/CC/C(C)=C/CSc1ccccc1C(=O)NCCOCCN	=	23.8
CC(C)=CCC/C(C)=C/CC/C(C)=C/CSc1ccccc1C(=O)O [SALIRASIB]	=	3.65
CC(C)=CCC/C(C)=C/CC/C(C)=C/CSc1ccccc1C(=O)NCCCCCN	=	18

###

Here the recorded pIC50 is given for each entry.
- Tested on: SMMC-7721
- protocol.notes: Cytotoxicity against human SMMC7721 cells after 48 hrs by MTT assay
- Type: functional, cell-based
- condition.description: SMMC-7721, 48 h
pIC50: −log10 of the molar value.

smiles.data	relational.operator	pIC50
CC(C)=CCC/C(C)=C/CC/C(C)=C/CSc1ccccc1C(=O)NCCCCN	=	4.82
CC(C)=CCC/C(C)=C/CC/C(C)=C/CSc1ccccc1C(=O)NCCNC(=O)c1ccccc1SC/C=C(\C)CC/C=C(\C)CCC=C(C)C	<	4.30
CNC(=O)c1cc(Oc2ccc(NC(=O)Nc3ccc(Cl)c(C(F)(F)F)c3)cc2)ccn1	=	4.73
CC(C)=CCC/C(C)=C/CC/C(C)=C/CSc1ccccc1C(=O)NCCCCCN	=	5.04
CC(C)=CCC/C(C)=C/CC/C(C)=C/CSc1ccccc1C(=O)NCCCCCNC(=O)c1ccccc1SC/C=C(\C)CC/C=C(\C)CCC=C(C)C	=	4.44
CC(C)=CCC/C(C)=C/CC/C(C)=C/CSc1ccccc1C(=O)NCCCN	=	4.97
CC(C)=CCC/C(C)=C/CC/C(C)=C/CSc1ccccc1C(=O)NCCCCNC(=O)c1ccccc1SC/C=C(\C)CC/C=C(\C)CCC=C(C)C	<	4.30
CC(C)=CCC/C(C)=C/CC/C(C)=C/CSc1ccccc1C(=O)NCCCCCCNC(=O)c1ccccc1SC/C=C(\C)CC/C=C(\C)CCC=C(C)C	<	4.30

###

Documented pIC50 across a set of compounds
- Tested on: SMMC-7721
- protocol.notes: Cytotoxicity against human SMMC7721 cells after 48 hrs by MTT assay
- Format: functional, cell-based
- condition.description: SMMC-7721, 48 h
pIC50: −log10 of the molar value.
measure: pIC50

smiles.data	measure	relational.operator	value.measured
CC(C)=CCC/C(C)=C/CC/C(C)=C/CSc1ccccc1C(=O)NCCCNC(=O)c1ccccc1SC/C=C(\C)CC/C=C(\C)CCC=C(C)C	pIC50	<	4.30
CC(C)=CCC/C(C)=C/CC/C(C)=C/CSc1ccccc1C(=O)O	pIC50	=	4.16
CC(C)=CCC/C(C)=C/CC/C(C)=C/CSc1ccccc1C(=O)NCCCCCCN	pIC50	=	5.10
CC(C)=CCC/C(C)=C/CC/C(C)=C/CSc1ccccc1C(=O)NCCOCCN	pIC50	=	5.24
CC(C)=CCC/C(C)=C/CC/C(C)=C/CSc1ccccc1C(=O)NCCOCCNC(=O)c1ccccc1SC/C=C(\C)CC/C=C(\C)CCC=C(C)C	pIC50	=	4.54
CC(C)=CCC/C(C)=C/CC/C(C)=C/CSc1ccccc1C(=O)N1CCNCC1	pIC50	=	4.49
CC(C)=CCC/C(C)=C/CC/C(C)=C/CSc1ccccc1C(=O)N1CCN(C(=O)c2ccccc2SC/C=C(\C)CC/C=C(\C)CCC=C(C)C)CC1	pIC50	<	4.30
CC(C)=CCC/C(C)=C/CC/C(C)=C/CSc1ccccc1C(=O)NCCN	pIC50	=	4.60

FYI, the data here is from ChEMBL document CHEMBL3102776.
